Please respond with reported T/C for every item in the list.
System: P388 leukemia ip, CD2F1 mice, survival T/C
assay_notes: NCI In Vivo Anticancer Drug Screen. Data for tumor model P388 Leukemia (intraperitoneal) in CD2F1 (CDF1) mice
measurement_parameters: endpoint: median survival time; dose: 120.0 mg/kg/injection; schedule: Q01DX005 (ip); vehicle: Klucel (hydroxypropylcellulose) (HPC); higher = longer survival
Toxic doses and inconclusive results are not listed.

{"compound": "C=C1N=NN(c2ccc(C)cc2)C1N1CCOCC1 (stereo not drawn)", "result": "99 % of control"}
{"compound": "COc1ccc(C2=NC(=O)OC2(C)C)cc1", "result": "102 % of control"}

Now turn to the next compound.
Note to self: T/C recorded for Nc1nc(SCC(=O)O)[nH]c(=O)c1NS(=O)(=O)c1ccccc1 was 109 % of control

###

System: P388 leukemia ip, CD2F1 mice, survival T/C
assay_notes: NCI In Vivo Anticancer Drug Screen. Data for tumor model P388 Leukemia (intraperitoneal) in CD2F1 (CDF1) mice
measurement_parameters: endpoint: median survival time; dose: 120.0 mg/kg/injection; schedule: Q01DX005 (ip); vehicle: saline with Tween-80; higher = longer survival
Toxic doses and inconclusive results are not listed.
measurement_label: T/C

Recorded T/C, per entry:
{"compound": "O=c1c(C(=Nc2ccccc2)c2ccccc2)c[nH]n1-c1ccccc1", "T/C": "105 % of control"}
{"compound": "CCOC(=O)C1=NN(c2ccccc2)C(C(=O)OC)[C@@H]1C(=O)OC (stereo partly specified)", "T/C": "98 % of control"}
{"compound": "CC(=O)Nc1ccccc1C(=O)C(=O)Nc1ccccc1C(=O)NN", "T/C": "89 % of control"}

Kindly give each listed record's T/C.
1. COC(=O)c1nc(N)nc(C(=O)OC)c1C(=O)Cc1ccccc1
2. CC(C(=O)O)c1cn(Cc2ccccc2)c2ccccc12 (stereo unspecified)
3. [Se]=[Hf]=[Se]

[out]
103 % of control
102 % of control
97 % of control

###

Test system: P388 leukemia ip, CD2F1 mice, survival T/C
assay_notes: NCI In Vivo Anticancer Drug Screen. Data for tumor model P388 Leukemia (intraperitoneal) in CD2F1 (CDF1) mice
measurement_parameters: endpoint: median survival time; dose: 200.0 mg/kg/injection; schedule: Q01DX001 (ip); vehicle: saline with Tween-80; higher = longer survival
Inconclusive results and toxic doses are left out.
Please respond with reported T/C for every item in the list.

{"compound": "CSc1n[nH]c(N)c1C(N)=O", "T/C": "100 % of control"}
{"compound": "O=C(NC(=S)c1ccc(Br)cc1)NS(=O)(=O)c1ccccc1", "T/C": "102 % of control"}
{"compound": "Cc1nc(N)c(C#N)c(-c2ccccc2)c1-c1ccccc1", "T/C": "90 % of control"}
{"compound": "CCOC(=O)Cc1cc(O)c(C(=O)OCC)c(O)c1C(=O)OCC", "T/C": "105 % of control"}
{"compound": "OCC1c2ccc(Cl)cc2Nc2ccc(Cl)cc21 (stereo unspecified)", "T/C": "95 % of control"}
{"compound": "CC12CCC3(CO3)CC1CCC1C2CCC2(C)C1CCC21CO1 (stereo unspecified)", "T/C": "99 % of control"}
{"compound": "Cn1c(Cl)c(/C=N\\Nc2ccc([N+](=O)[O-])cc2[N+](=O)[O-])c2ccccc21", "T/C": "93 % of control"}
{"compound": "O=c1c(Cl)c(Cl)cnn1-c1ccccc1", "T/C": "111 % of control"}
{"compound": "CCN1c2ccccc2S(=O)(=O)n2c(/C=C/c3ccc(OC)cc3)nnc21", "T/C": "88 % of control"}
{"compound": "O=C(Nc1ccc(F)cc1)/C(Cl)=C1/Sc2ccccc2NC1=O", "T/C": "94 % of control"}

Now turn to the next compound.
Note to self: T/C recorded for O=S1(=O)CC(Sc2ccccc2)C1 was 96 % of control
